Measurement Description: In vivo pharmacokinetics of pyrotinib in rats with or without azole pretreatment
Set-up: species or system Sprague-Dawley rats
Measurement Context: male, Sprague-Dawley, rat, plasma, po, 8 mg/kg, 8 mg/kg pyrotinib oral, after 40 mg/kg fluconazole for 7 days, n = 6

Compound	Units Label	Cmax
CCOc1cc2ncc(C#N)c(Nc3ccc(OCc4ccccn4)c(Cl)c3)c2cc1NC(=O)/C=C/[C@H]1CCCN1C [pyrotinib, Pyrotinib]	ng/mL	4290

----------
Measurement Description: In vivo pharmacokinetics of pyrotinib in rats with or without azole pretreatment
Parameters: species or system Sprague-Dawley rats
Measurement Context: male, Sprague-Dawley, rat, plasma, po, 8 mg/kg, 8 mg/kg pyrotinib oral, after 40 mg/kg itraconazole for 7 days, n = 6
Assay Endpoint: AUC(0-t) (ng·h/mL)

CCOc1cc2ncc(C#N)c(Nc3ccc(OCc4ccccn4)c(Cl)c3)c2cc1NC(=O)/C=C/[C@H]1CCCN1C 18000

----------
Measurement Description: In vivo pharmacokinetics of pyrotinib in rats with or without azole pretreatment
Parameters: species or system Sprague-Dawley rats
Measurement Context: male, Sprague-Dawley, rat, plasma, po, 8 mg/kg, 8 mg/kg pyrotinib oral, after 40 mg/kg ketoconazole for 7 days, n = 6
Assay Endpoint: CL/F (mL/min/kg)

CCOc1cc2ncc(C#N)c(Nc3ccc(OCc4ccccn4)c(Cl)c3)c2cc1NC(=O)/C=C/[C@H]1CCCN1C 3.83

----------
Measurement Description: In vivo pharmacokinetics of pyrotinib in rats with or without azole pretreatment
Set-up: species or system Sprague-Dawley rats
Measurement Context: male, Sprague-Dawley, rat, plasma, po, 8 mg/kg, 8 mg/kg pyrotinib oral, after 40 mg/kg itraconazole for 7 days, n = 6
Protocol: Male Sprague-Dawley rats (180–220 g) were supplied by the Experimental Animal Center of Wenzhou Medical University. The animals were placed in a controlled environment of 20–26°C and 55 ± 15% relative humidity under a 12 h light-dark cycle. Except for the 12-h fasting period before the PK study, all rats were fed a standard rodent diet and freely consumed tap water. […]

Molecule	AUC(0-inf)
CCOc1cc2ncc(C#N)c(Nc3ccc(OCc4ccccn4)c(Cl)c3)c2cc1NC(=O)/C=C/[C@H]1CCCN1C [pyrotinib, Pyrotinib]	18000 ng·h/mL

----------
Measurement Description: In vivo pharmacokinetics of pyrotinib in rats with or without azole pretreatment
Design: species or system Sprague-Dawley rats
Measurement Context: male, Sprague-Dawley, rat, plasma, po, 8 mg/kg, 8 mg/kg pyrotinib oral, control group (0.5% CMC-Na), n = 6
Assay Endpoint: AUC(0-t)

Compound	Assay Endpoint	Data Value
CCOc1cc2ncc(C#N)c(Nc3ccc(OCc4ccccn4)c(Cl)c3)c2cc1NC(=O)/C=C/[C@H]1CCCN1C [pyrotinib, Pyrotinib]	AUC(0-t)	17800 ng·h/mL

----------
Measurement Description: In vivo pharmacokinetics of pyrotinib in rats with or without azole pretreatment
Parameters: species or system Sprague-Dawley rats
Measurement Context: male, Sprague-Dawley, rat, plasma, po, 8 mg/kg, 8 mg/kg pyrotinib oral, after 40 mg/kg ketoconazole for 7 days, n = 6, read-out: Vz/F
Assay Endpoint: Vd/F (L/kg)

CCOc1cc2ncc(C#N)c(Nc3ccc(OCc4ccccn4)c(Cl)c3)c2cc1NC(=O)/C=C/[C@H]1CCCN1C 0.89

----------
Measurement Description: In vivo pharmacokinetics of pyrotinib in rats with or without azole pretreatment
Design: species or system Sprague-Dawley rats
Measurement Context: male, Sprague-Dawley, rat, plasma, po, 8 mg/kg, 8 mg/kg pyrotinib oral, control group (0.5% CMC-Na), n = 6
Assay Endpoint: CL/F (mL/min/kg)

CCOc1cc2ncc(C#N)c(Nc3ccc(OCc4ccccn4)c(Cl)c3)c2cc1NC(=O)/C=C/[C@H]1CCCN1C 7.67

----------
Measurement Description: In vivo pharmacokinetics of pyrotinib in rats with or without azole pretreatment
Parameters: species or system Sprague-Dawley rats
Measurement Context: male, Sprague-Dawley, rat, plasma, po, 8 mg/kg, 8 mg/kg pyrotinib oral, after 40 mg/kg fluconazole for 7 days, n = 6
Assay Endpoint: CL/F (mL/min/kg)

CCOc1cc2ncc(C#N)c(Nc3ccc(OCc4ccccn4)c(Cl)c3)c2cc1NC(=O)/C=C/[C@H]1CCCN1C 4.83

----------
Tested On: pyrotinib metabolism in rat liver microsomes (RLMs)
Measurement Description: In vitro drug-drug interaction study: azole inhibition of pyrotinib metabolism (M1 formation) in RLMs
Measurement Context: RLMs, pyrotinib 1, 2, 4, 8 µM, Lineweaver-Burk analysis
Each entry below lists one item and its recorded Ki value.
Assay Endpoint: Ki (nM)

Compound	Data Value
CCC(C)n1ncn(-c2ccc(N3CCN(c4ccc(OCC5COC(Cn6cncn6)(c6ccc(Cl)cc6Cl)O5)cc4)CC3)cc2)c1=O (stereo not drawn) [itraconazole, Itraconazole]	496
OC(Cn1cncn1)(Cn1cncn1)c1ccc(F)cc1F [fluconazole, Fluconazole]	15100
CC(=O)N1CCN(c2ccc(OCC3COC(Cn4ccnc4)(c4ccc(Cl)cc4Cl)O3)cc2)CC1 (stereo not drawn) [ketoconazole, Ketoconazole]	132

----------
Measurement Description: In vivo pharmacokinetics of pyrotinib in rats with or without azole pretreatment
Parameters: species or system Sprague-Dawley rats
Measurement Context: male, Sprague-Dawley, rat, plasma, po, 8 mg/kg, 8 mg/kg pyrotinib oral, after 40 mg/kg itraconazole for 7 days, n = 6
Assay Endpoint: Cmax (µg/mL)

CCOc1cc2ncc(C#N)c(Nc3ccc(OCc4ccccn4)c(Cl)c3)c2cc1NC(=O)/C=C/[C@H]1CCCN1C 3
